biological target: T1, human SIRPβ stably expressed on CHOK1 cells (human, UniProt O00241 30-398); experiment: FACS, CHOK1-hSIRPβ cells
T1 construct: whole, on cells; also called CHOK1-human SIRPB; CHOK1-hSIRPβ
T1 sequence (O00241 30-398): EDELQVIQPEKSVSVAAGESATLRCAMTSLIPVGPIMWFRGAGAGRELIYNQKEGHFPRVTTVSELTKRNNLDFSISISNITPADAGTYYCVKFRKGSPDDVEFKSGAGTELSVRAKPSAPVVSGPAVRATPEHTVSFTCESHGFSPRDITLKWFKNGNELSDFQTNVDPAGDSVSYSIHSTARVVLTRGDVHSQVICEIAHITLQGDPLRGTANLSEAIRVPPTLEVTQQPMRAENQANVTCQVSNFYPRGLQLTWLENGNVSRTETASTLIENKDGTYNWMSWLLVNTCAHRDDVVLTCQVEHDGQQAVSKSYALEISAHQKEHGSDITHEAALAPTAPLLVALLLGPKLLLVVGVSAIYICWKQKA
PROPERTY: pEC50
The scale used: pEC50 is minus the common logarithm of the concentration in molar units.

// field: pEC50; key: 073c (antibody, V domains shown, also called chimeric antibody 073c) VH: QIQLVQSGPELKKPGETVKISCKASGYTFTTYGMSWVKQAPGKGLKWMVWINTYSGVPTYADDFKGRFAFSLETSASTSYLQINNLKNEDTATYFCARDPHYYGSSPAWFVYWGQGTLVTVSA VL: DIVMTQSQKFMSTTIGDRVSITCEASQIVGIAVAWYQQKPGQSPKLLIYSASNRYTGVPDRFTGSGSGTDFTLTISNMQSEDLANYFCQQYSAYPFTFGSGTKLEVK ; value = 7.64
